SYSTEM UNDER TEST: T1, CathepsinG, from human neutrophils (human, UniProt P08311 21-244)
T1 construct: purified natural enzyme, bought
T1 sequence (looked up): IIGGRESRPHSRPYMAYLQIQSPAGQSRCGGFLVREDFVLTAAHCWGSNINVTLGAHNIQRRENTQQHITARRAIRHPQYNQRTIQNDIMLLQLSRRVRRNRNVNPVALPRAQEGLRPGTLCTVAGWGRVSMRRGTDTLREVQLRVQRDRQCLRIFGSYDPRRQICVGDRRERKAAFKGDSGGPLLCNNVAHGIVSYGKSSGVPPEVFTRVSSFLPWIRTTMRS
PROCEDURE DETAILS: enzyme inhibition, pNA substrate
Bridges are numbered along the chain shown (N, C = ends). [ ]: non-standard residue; d: D form. Gly(octyl) = CCCCCCCC[C@H](N)C(=O)O; Pro(4NHCOPhe) = not defined here; Cha = N[C@@H](CC1CCCCC1)C(=O)O; Nle = CCCC[C@H](N)C(=O)O

{"BINDER": "cyclo([Nle]CTAS[Cha]P[Pro(4NHCOPhe)]QCQ[dQ]Q) (disulfide 2-10; reading uncertain, also called Ex. 176) [Example 176]", "% inhibition at 100 µM, %": 69}
{"BINDER": "cyclo([Gly(octyl)]CTAS[Cha]P[Pro(4NHCOPhe)]QCQ[dP]P) (disulfide 2-10; not fully specified; reading uncertain, also called Ex. 160) [Example 160]", "% inhibition at 100 µM, %": 55}
{"BINDER": "XETASIPPQKY (HELM PEPTIDE1{[Nle].E.T.A.S.I.P.P.Q.K.Y.[dP].P}$PEPTIDE1,PEPTIDE1,1:R1-13:R2$$$V2.0; SMILES CCCC[C@@H]1NC(=O)[C@@H]2CCCN2C(=O)[C@H]2CCCN2C(=O)[C@H](Cc2ccc(O)cc2)NC(=O)[C@H](CCCCN)NC(=O)[C@H](CCC(N)=O)NC(=O)[C@@H]2CCCN2C(=O)[C@@H]2CCCN2C(=O)[C@H]([C@@H](C)CC)NC(=O)[C@H](CO)NC(=O)[C@H](C)NC(=O)[C@H]([C@@H](C)O)NC(=O)[C@H](CCC(=O)O)NC1=O) [Example 104]", "% inhibition at 100 µM, %": 53.5}
{"BINDER": "cyclo([Gly(octyl)]ETASIPPQKY[dP]P) (also called Ex. 156) [Example 156]", "% inhibition at 100 µM, %": 46}
{"BINDER": "XCTASIPPQCY (HELM PEPTIDE1{[Nle].C.T.A.S.I.P.P.Q.C.Y.[dK].E}$PEPTIDE1,PEPTIDE1,2:R3-10:R3|PEPTIDE1,PEPTIDE1,1:R1-13:R2$$$V2.0; SMILES CCCC[C@@H]1NC(=O)[C@H](CCC(=O)O)NC(=O)[C@@H](CCCCN)NC(=O)[C@H](Cc2ccc(O)cc2)NC(=O)[C@@H]2CSSC[C@H](NC1=O)C(=O)N[C@@H]([C@@H](C)O)C(=O)N[C@@H](C)C(=O)N[C@@H](CO)C(=O)N[C@@H]([C@@H](C)CC)C(=O)N1CCC[C@H]1C(=O)N1CCC[C@H]1C(=O)N[C@@H](CCC(N)=O)C(=O)N2) [Example 127]", "% inhibition at 100 µM, %": 64}
{"BINDER": "XCTASIPPQCQ (HELM PEPTIDE1{[Nle].C.T.A.S.I.P.P.Q.C.Q.[dP].P}$PEPTIDE1,PEPTIDE1,2:R3-10:R3|PEPTIDE1,PEPTIDE1,1:R1-13:R2$$$V2.0; SMILES CCCC[C@@H]1NC(=O)[C@@H]2CCCN2C(=O)[C@H]2CCCN2C(=O)[C@H](CCC(N)=O)NC(=O)[C@@H]2CSSC[C@H](NC1=O)C(=O)N[C@@H]([C@@H](C)O)C(=O)N[C@@H](C)C(=O)N[C@@H](CO)C(=O)N[C@@H]([C@@H](C)CC)C(=O)N1CCC[C@H]1C(=O)N1CCC[C@H]1C(=O)N[C@@H](CCC(N)=O)C(=O)N2, also called Ex. 91) [Example 91]", "% inhibition at 100 µM, %": 45}
